Assign EC50 CreLuc hNPY2R 100% hP to each entry below.
- SYSTEM TESTED: T1, human neuropeptide Y2 receptor (human, UniProt P49146 1-381)
- T1 sequence (looked up): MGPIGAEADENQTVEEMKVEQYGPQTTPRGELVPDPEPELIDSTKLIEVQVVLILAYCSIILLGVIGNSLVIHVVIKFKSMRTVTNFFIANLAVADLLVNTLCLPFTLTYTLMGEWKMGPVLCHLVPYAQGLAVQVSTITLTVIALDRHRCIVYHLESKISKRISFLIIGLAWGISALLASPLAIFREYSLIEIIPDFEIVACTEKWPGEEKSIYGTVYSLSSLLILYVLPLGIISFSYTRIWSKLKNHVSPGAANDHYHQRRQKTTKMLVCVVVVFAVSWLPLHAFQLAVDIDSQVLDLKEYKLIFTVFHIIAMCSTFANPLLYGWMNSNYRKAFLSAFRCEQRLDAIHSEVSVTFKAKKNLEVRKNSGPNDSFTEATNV
- ASSAY NOTES: cell-based or functional assay
Starred links: 1 amine or outer side, 2 acyl side, 3 side chain; linkers in the order of their positions; H or OH if unused. Non-standard residues stand in square brackets, D forms with d. Groups on a side chain read outwards from the residue. No end group written: not given here. *: point of attachment. C20 diacid = O=C(O)CCCCCCCCCCCCCCCCCCC(=O)*; C18 diacid = O=C(O)CCCCCCCCCCCCCCCCC(=O)*; γGlu = O=C(O)[C@H](CCC(=O)[*:2])N[*:1]; εLys = N[C@@H](CCCCN[*:1])C(=O)[*:2]; AEEA = NCCOCCOCC(=O)O; Aib = CC(C)(N)C(=O)O
Give bare numbers, in µM.

GET /value?item= Y[Aib]EGTFTSDYSI[Aib]LEKQAQ[Aib]EFVQWLIK([γGlu-γGlu-γGlu-γGlu-γGlu-γGlu-C18 diacid])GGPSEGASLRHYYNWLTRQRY-NH2 [Compound 151] &field=EC50 CreLuc hNPY2R 100% hP returns 0.0423

Reported EC50 CreLuc hNPY2R 100% hP ( YXEGTFTSDYSIXLEKQAQXAFVEWLIKGGPSEYESLRHYYNWLTRQRY (Aib at 2, 13, 20; K28 side chain: C20DA-gGlu-gGlu-gGlu-gGlu-gGlu-gGlu-eLys; C-terminal NH2) [Compound 93] ) = 0.0857

Give EC50 CreLuc hNPY2R 100% hP for each of the items listed below.
1. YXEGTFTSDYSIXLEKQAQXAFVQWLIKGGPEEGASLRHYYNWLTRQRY (Aib at 2, 13, 20; K28 side chain: C18DA-gGlu-gGlu-gGlu-gGlu-gGlu-gGlu-eLys; C-terminal NH2) [Compound 149]
2. Y[Aib]EGTFTSDYSI[Aib]LEKQAQ[Aib]AFVQWLIK([εLys-γGlu-γGlu-γGlu-γGlu-γGlu-C20 diacid])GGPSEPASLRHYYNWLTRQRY-NH2 [Compound 169]
3. Y[Aib]EGTFTSDYSI[Aib]LEKQAQ[Aib]EFVEWLIK([AEEA-AEEA-γGlu-γGlu-γGlu-γGlu-C18 diacid])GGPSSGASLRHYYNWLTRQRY-NH2 [Compound 145]

A:
1. 0.0403
2. 0.0503
3. 0.0318

Where do these numbers come from? They come from patent US20240247080A1.
